Recorded values, source PubChem BioAssay AID1159580.

assay: chemical genetic growth profiling, strain panel (AID 1159580);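 note: tested at 20 µM; growth read once vehicle control cultures reached saturation at 30 °C; lower values mean less growth of the strain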; conditions: S. cerevisiae deletion strains, growth OD, locus YIL125W, strain kgd1
In all, about 5,500 compounds went through this assay and about 2,000 (36%) were called active. Roughly 18% stayed inconclusive and do not appear here. Cut-off read from the data, not from the text of the source: active = normalized growth mostly below about 0.91 (no sharp cut-off); inconclusive = no clear call, values can overlap the other calls; inactive = mostly above about 0.92. This is one part of the list.
Outcomes: T (active), F (inactive)

molecule	class.assignment
CCc1cccc(C)c1N(C(=O)CCl)C(C)COC (stereo not given)	F
CC(=O)[C@H]1CCC2C3C[C@H](C)C4=CC(=O)CC[C@]4(C)C3[C@@H](O)C[C@@]21C (stereo not given in full)	F
CCCCOc1ccc(CC(=O)NO)cc1	F
COC1C(O)C(O)C(O)[C@@H](O)C1O (stereo not given in full)	F
S=C=NCc1ccccc1	T
